# Assay Target: T1, human NMI (N-myc Interacting protein), recombinant protein (human, UniProt Q13287 1-307, limits assumed)
# T1 construct: Gene ID: 9111; also called hNMI; antigen
# T1 sequence (looked up): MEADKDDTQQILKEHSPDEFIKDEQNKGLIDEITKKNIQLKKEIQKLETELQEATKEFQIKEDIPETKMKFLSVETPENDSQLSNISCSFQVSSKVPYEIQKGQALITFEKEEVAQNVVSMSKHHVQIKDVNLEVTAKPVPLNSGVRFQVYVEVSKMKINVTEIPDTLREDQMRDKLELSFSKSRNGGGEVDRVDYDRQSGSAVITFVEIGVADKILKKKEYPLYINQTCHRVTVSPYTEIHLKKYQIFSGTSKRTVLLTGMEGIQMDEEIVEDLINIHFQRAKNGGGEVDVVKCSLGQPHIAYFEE
# Test Name: ELISA EC50 against parent 94C4
Documented Fold decrease in affinity across a set of binders

Sample records with Fold decrease in affinity:
[[record]]
binder = "94C4 mutant D101K (VH) (antibody, V domains shown) VH: QSLEESGGGLVQPEGSLTLTCKASGFDFSSNAMCWVRQAPGKGLEWIACISSASSGSSGSTYYASWAKGRFTISKTSSTTVTLQMTSLTAADMATYFCARKGYDLWGPGTLVTVSS VL: QVLTQTPSSVSAAVGGTVTISCQSSPSVYNNYLSWFQQKPGQSPKLLIYRVSTLASGVPSRFSGSGSGTQFTLTISGVQCDDAATYYCAGGYDSASDTYVFGGGTEVVVK"
observed_measurement = "> 500 fold"

[[record]]
binder = "94C4 mutant S52K (VH) (antibody, V domains shown) VH: QSLEESGGGLVQPEGSLTLTCKASGFDFSSNAMCWVRQAPGKGLEWIACISKASSGSSGSTYYASWAKGRFTISKTSSTTVTLQMTSLTAADMATYFCARDGYDLWGPGTLVTVSS VL: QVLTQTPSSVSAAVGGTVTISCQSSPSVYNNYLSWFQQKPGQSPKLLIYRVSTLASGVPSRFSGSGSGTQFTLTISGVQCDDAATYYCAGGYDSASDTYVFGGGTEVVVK"
observed_measurement = "> 500 fold"

[[record]]
binder = "94C4 mutant D97K (VL) (antibody, V domains shown) VH: QSLEESGGGLVQPEGSLTLTCKASGFDFSSNAMCWVRQAPGKGLEWIACISSASSGSSGSTYYASWAKGRFTISKTSSTTVTLQMTSLTAADMATYFCARDGYDLWGPGTLVTVSS VL: QVLTQTPSSVSAAVGGTVTISCQSSPSVYNNYLSWFQQKPGQSPKLLIYRVSTLASGVPSRFSGSGSGTQFTLTISGVQCDDAATYYCAGGYDSASKTYVFGGGTEVVVK"
observed_measurement = "> 500 fold"

[[record]]
binder = "94C4 mutant D101Q (VH) (antibody, V domains shown) VH: QSLEESGGGLVQPEGSLTLTCKASGFDFSSNAMCWVRQAPGKGLEWIACISSASSGSSGSTYYASWAKGRFTISKTSSTTVTLQMTSLTAADMATYFCARQGYDLWGPGTLVTVSS VL: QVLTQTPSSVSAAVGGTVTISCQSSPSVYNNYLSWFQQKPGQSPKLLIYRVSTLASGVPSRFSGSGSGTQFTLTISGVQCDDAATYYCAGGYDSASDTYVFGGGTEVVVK"
observed_measurement = "> 500 fold"

[[record]]
binder = "94C4 mutant D101S (VH) (antibody, V domains shown) VH: QSLEESGGGLVQPEGSLTLTCKASGFDFSSNAMCWVRQAPGKGLEWIACISSASSGSSGSTYYASWAKGRFTISKTSSTTVTLQMTSLTAADMATYFCARSGYDLWGPGTLVTVSS VL: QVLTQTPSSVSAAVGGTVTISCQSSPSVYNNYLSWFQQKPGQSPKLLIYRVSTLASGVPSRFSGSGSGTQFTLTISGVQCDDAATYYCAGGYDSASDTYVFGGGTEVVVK"
observed_measurement = "> 500 fold"


Shifting focus to the binder that follows.
Ask | Fill blank: measured Fold decrease in affinity of the binder 94C4 mutant S29D (VH) (antibody, V domains shown) VH: QSLEESGGGLVQPEGSLTLTCKASGFDFDSNAMCWVRQAPGKGLEWIACISSASSGSSGSTYYASWAKGRFTISKTSSTTVTLQMTSLTAADMATYFCARDGYDLWGPGTLVTVSS VL: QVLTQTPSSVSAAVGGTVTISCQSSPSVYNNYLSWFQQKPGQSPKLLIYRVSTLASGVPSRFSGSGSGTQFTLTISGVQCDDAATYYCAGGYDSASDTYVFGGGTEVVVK is ____.
Reply | > 500 fold
